Each recorded value in this set is attributed to paper PMC9976900.

Biological target: T1, Unr CSD789 P860A (Drosophila, UniProt B7Z0E2 756-990, P860A)
T1 sequence: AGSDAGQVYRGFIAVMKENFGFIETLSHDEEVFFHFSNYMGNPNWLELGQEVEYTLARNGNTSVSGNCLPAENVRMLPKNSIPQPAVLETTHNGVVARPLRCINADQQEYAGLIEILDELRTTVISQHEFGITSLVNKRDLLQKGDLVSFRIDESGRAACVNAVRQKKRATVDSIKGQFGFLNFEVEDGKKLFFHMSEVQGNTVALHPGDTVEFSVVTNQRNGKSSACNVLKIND
Assay: fluorescence polarization
Property name: Kd (µM)

{"Binder": "AAAAAAAAAAAAAAA (ssRNA) [A15-mer, 3' labelled]", "Property name": "Kd", "Quantity unit": "µM", "Recorded number": 67.2}
